Target: T1, sIL-6R (soluble IL-6 receptor; SBH Sciences) (human, UniProt P08887 20-365)
T1 construct: also called human IL-6R
T1 sequence: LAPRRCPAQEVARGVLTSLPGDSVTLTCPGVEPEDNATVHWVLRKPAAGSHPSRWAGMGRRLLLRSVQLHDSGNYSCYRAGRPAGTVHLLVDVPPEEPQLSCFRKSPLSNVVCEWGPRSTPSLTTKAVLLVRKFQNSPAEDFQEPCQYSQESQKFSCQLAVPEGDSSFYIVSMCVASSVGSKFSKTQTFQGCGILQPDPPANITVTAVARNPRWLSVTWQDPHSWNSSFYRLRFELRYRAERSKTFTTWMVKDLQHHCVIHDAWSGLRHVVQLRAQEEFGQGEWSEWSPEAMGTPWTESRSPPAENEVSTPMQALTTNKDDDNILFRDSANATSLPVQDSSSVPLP
Test: SPR (BIAcore 3000), antibody on chip, sIL-6R analyte, 25 C
Measured Metric: Kd (nM)
Could you give me the number in nM? Just the number is fine.

# Binder, Kd [nM]
data = [
    ("Tocilizumab (antibody, human IgG1, kappa, V domains shown, also called 25; 25(control)) VH: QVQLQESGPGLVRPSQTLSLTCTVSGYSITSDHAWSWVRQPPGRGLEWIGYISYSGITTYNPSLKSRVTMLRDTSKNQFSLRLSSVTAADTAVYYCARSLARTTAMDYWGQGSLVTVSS VL: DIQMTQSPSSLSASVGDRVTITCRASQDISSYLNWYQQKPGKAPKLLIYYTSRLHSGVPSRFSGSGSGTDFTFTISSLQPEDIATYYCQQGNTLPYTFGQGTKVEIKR", 3.16),
    ("224# (antibody, human IgG1, kappa, V domains shown) VH: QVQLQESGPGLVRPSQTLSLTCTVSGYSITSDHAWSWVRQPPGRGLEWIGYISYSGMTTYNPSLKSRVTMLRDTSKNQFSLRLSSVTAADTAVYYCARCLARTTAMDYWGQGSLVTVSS VL: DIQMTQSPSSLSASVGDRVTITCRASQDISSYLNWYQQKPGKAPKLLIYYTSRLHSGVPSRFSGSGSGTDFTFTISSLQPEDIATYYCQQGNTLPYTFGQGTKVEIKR", 0.5),
    ("235# (antibody, human IgG1, kappa, V domains shown) VH: QVQLQESGPGLVRPSQTLSLTCTVSGYSITSDHAWSWVRQPPGRGLEWIGYISYSGMITYNPSLKSRVTMLRDTSKNQFSLRLSSVTAADTAVYYCARTLARMTAIDFWGQGSLVTVSS VL: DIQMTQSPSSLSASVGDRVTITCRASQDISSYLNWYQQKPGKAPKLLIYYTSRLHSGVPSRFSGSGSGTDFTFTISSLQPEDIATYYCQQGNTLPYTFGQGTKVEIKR", 0.297),
    ("221# (antibody, human IgG1, kappa, V domains shown) VH: QVQLQESGPGLVRPSQTLSLTCTVSGYSITSDHAWSWVRQPPGRGLEWIGYISYSGMITYNPSLKSRVTMLRDTSKNQFSLRLSSVTAADTAVYYCARSLARTTAIDFWGQGSLVTVSS VL: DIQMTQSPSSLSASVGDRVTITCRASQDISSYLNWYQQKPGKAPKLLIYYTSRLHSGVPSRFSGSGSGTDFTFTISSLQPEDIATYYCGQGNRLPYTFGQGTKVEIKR", 0.663),
    ("223# (antibody, human IgG1, kappa, V domains shown, also called Sample # 223) VH: QVQLQESGPGLVRPSQTLSLTCTVSGYSITSDHAWSWVRQPPGRGLEWIGYISYSGMITYNPSLKSRVTMLRDTSKNQFSLRLSSVTAADTAVYYCARCLARMTAIDFWGQGSLVTVSS VL: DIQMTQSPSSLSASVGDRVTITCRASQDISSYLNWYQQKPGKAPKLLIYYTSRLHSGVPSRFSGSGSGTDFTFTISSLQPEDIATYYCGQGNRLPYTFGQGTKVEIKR", 0.368),
]

So for 218# (antibody, human IgG1, kappa, V domains shown) VH: QVQLQESGPGLVRPSQTLSLTCTVSGYSITSDHAWSWVRQPPGRGLEWIGYISYSGMITYNPSLKSRVTMLRDTSKNQFSLRLSSVTAADTAVYYCARCLARMTAIDFWGQGSLVTVSS VL: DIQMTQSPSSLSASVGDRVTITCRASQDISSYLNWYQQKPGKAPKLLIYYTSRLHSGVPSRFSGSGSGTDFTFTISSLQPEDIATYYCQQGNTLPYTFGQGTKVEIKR , the logged Kd turned out to be 0.621

So for 228# (antibody, human IgG1, kappa, V domains shown, also called Sample # 228) VH: QVQLQESGPGLVRPSQTLSLTCTVSGYSITSDHAWSWVRQPPGRGLEWIGYISYSGMTTYNPSLKSRVTMLRDTSKNQFSLRLSSVTAADTAVYYCARCLARMTAIDFWGQGSLVTVSS VL: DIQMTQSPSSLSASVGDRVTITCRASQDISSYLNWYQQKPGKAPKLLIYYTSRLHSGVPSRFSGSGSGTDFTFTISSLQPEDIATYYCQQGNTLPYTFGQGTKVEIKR , the logged Kd turned out to be 0.204

So for 240# (antibody, human IgG1, kappa, V domains shown, also called Sample # 240) VH: QVQLQESGPGLVRPSQTLSLTCTVSGYSITSDHAWSWVRQPPGRGLEWIGYISYSGMITYNPSLKSRVTMLRDTSKNQFSLRLSSVTAADTAVYYCARSLARATAMDYWGQGSLVTVSS VL: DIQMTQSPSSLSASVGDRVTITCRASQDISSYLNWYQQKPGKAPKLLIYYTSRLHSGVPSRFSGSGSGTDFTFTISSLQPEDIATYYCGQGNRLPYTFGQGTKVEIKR , the logged Kd turned out to be 0.15

So for 214# (antibody, human IgG1, kappa, V domains shown) VH: QVQLQESGPGLVRPSQTLSLTCTVSGYSITSDHAWSWVRQPPGRGLEWIGYISYSGITTYNPSLKSRVTMLRDTSKNQFSLRLSSVTAADTAVYYCARCLARMTAIDFWGQGSLVTVSS VL: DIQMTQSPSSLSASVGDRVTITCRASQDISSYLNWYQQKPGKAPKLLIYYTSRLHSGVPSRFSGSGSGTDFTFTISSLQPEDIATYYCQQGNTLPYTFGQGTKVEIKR , the logged Kd turned out to be 0.369

So for 238# (antibody, human IgG1, kappa, V domains shown) VH: QVQLQESGPGLVRPSQTLSLTCTVSGYSITSDHAWSWVRQPPGRGLEWIGYISYSGMITYNPSLKSRVTMLRDTSKNQFSLRLSSVTAADTAVYYCARCLARTTAMDYWGQGSLVTVSS VL: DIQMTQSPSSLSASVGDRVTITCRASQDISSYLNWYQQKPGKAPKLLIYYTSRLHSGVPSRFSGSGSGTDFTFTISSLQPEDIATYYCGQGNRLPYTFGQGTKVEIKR , the logged Kd turned out to be 0.111
